# measurement description: lipase assay as in Example 7, with super fluid chromatography to separate hydrolysis products
# Format: in vitro ADME, porcine
# assay context: pig, pancreatic lipase, pH 7.1, one hour incubation, read-out: hydrolyzed by pancreatic lipase

compound	metabolised at 1 h
CCCCCCCCCCCCCC(=O)OCCCCC(COC(=O)CCCCCCCCCCCCC)OC(=O)CCCCCCCCCCCCC (stereo not shown) [Example 5, 1,2,6-hexane trimyristate]	~20%
